# Assay Text: Comparative Rat Pharmacokinetics Experiments (plasma concentrations over time after oral gavage)
# Condition Label: male, Sprague-Dawley, 5 mg/kg
Quantity Name: concentration at 0.75 h

concentration at 0.75 h reported for this molecule `O=C([C@@H]1C[C@H](N2CCN(c3ncccn3)CC2)CN1)N1CCC(F)(F)C1` : 979 ng/mL

* * *

# Assay Text: Comparative Rat Pharmacokinetics Experiments (plasma concentrations over time after oral gavage)
# Condition Label: male, Sprague-Dawley, 5 mg/kg
Quantity Name: concentration at 2 h

concentration at 2 h reported for this compound `O=C([C@@H]1C[C@H](N2CCN(c3ncccn3)CC2)CN1)N1CCC(F)(F)C1` : 289 ng/mL

* * *

# Assay Text: Comparative Rat Pharmacokinetics Experiments (plasma concentrations over time after oral gavage)
# Condition Label: male, Sprague-Dawley, 5 mg/kg
Quantity Name: concentration at 4 h (ng/mL)
Use ng/mL as the unit, but write only the number.

concentration at 4 h reported for this compound `O=C([C@@H]1C[C@H](N2CCN(c3ncccn3)CC2)CN1)N1CCC(F)(F)C1` : 97.8

* * *

# Assay Text: Comparative Rat Pharmacokinetics Experiments (plasma concentrations over time after oral gavage)
# Condition Label: male, Sprague-Dawley, 5 mg/kg
Quantity Name: concentration at 6 h (ng/mL)
Use ng/mL as the unit, but write only the number.

concentration at 6 h reported for this compound O=C([C@@H]1C[C@H](N2CCN(c3ncccn3)CC2)CN1)N1CCC(F)(F)C1 [CPD 113] : 49.3

Data provenance: patent US7291618B2
